Hello, the source for this data is patent US3943256A, in case you need it.

Test system: mouse
Design: species or system male CF-1 mice; unit not given here
details: in vivo
MOUSE AC50 strictly under 2 means 1; at 2 or over means 0.

Example results:
FCOC(F)(C(F)F)C(F)(F)F (centres unmarked) [XIV]; 0
COC(C(F)(F)F)C(F)(F)F [XXI]; 0

Data request: Item COCC(F)(F)C(F)(F)F [XIX, methyl 2,2,3,3,3-pentafluoropropyl ether] : MOUSE AC50 beneath 2, strictly?
Data returned: 0

Data request: And for COCC(F)(F)C(F)F [XX] ?
Data returned: 0

Data request: And for FCOC(C(F)(F)F)C(F)(F)F [XV] ?
Data returned: 1

----------
Tested on: mouse
Design: species or system male CF-1 mice; unit not given here
details: in vivo
observable: MOUSE AC50
# output: bare number, no unit

Example compounds with recorded MOUSE AC50:
FCOC(F)(F)C(F)C(F)(F)F (stereo not drawn); 2.1
FCOC(C(F)F)C(F)(F)F (stereo not drawn); 0.84

# context switch: different compound, same MOUSE AC50
Data request: Report MOUSE AC50 for FC(F)OC(F)C(F)(F)C(F)F (stereo not drawn) please.
Data returned: 0.61
